- Tested on: peripheral blood mononuclear cells (PBMC)
- assay.summary: Anti-proliferative or immunosuppressive activity, BrdU incorporation in PHA-stimulated PBMC
- Format: cell-based
- assay.setup: PHA 3 μg/ml, 60 hour compound treatment; read-out: EMV PBMC IC50
Starred links: 1 amine or outer side, 2 acyl side, 3 side chain; linkers in the order of their positions; H or OH if unused. Non-standard residues stand in square brackets, D forms with d. Residues, ends and D or L forms follow the SMILES beside them. X37 = C[C@H](CN1CCC(S(C)(=O)=O)CC1)[C@@H](C(=O)[*:2])N(C)[*:1]; X73 = CO[C@H]1CCN(CCOC[C@@H](C)[C@@H](C(=O)[*:2])N(C)[*:1])C1; X21 = CCN1CCN(C[C@@H](C)[C@@H](C(=O)[*:2])N(C)[*:1])CC1; X3 = C[C@H](CN1CCOCC1)[C@@H](C(=O)[*:2])N(C)[*:1]; MeBmt = C/C=C/C[C@@H](C)[C@@H](O)[C@H](NC)C(=O)O; NMeL = CN[C@@H](CC(C)C)C(=O)O; NMeV = CN[C@H](C(=O)O)C(C)C; dNMeA = CN[C@H](C)C(=O)O; Abu = CC[C@H](N)C(=O)O
Consider the following compounds; for each one, report its IC50.
Answers are plain numbers, in µM.

Field: IC50. Fill in for each record below.
1. C/C=C/C[C@@H](C)[C@@H](O)[C@H]1C(=O)N[C@@H](CC)C(=O)N(C)[C@H](C)C(=O)N(C)[C@@H]([C@H](C)COCCN2CC[C@H](OC)C2)C(=O)N[C@@H](C(C)C)C(=O)N(C)[C@@H](CC(C)C)C(=O)N[C@@H](C)C(=O)N[C@H](C)C(=O)N(C)[C@@H](CC(C)C)C(=O)N(C)[C@@H](CC(C)C)C(=O)N(C)[C@@H](C(C)C)C(=O)N1C [Compound 2.8.7] (cyclo(A[dA][NMeL][NMeL][NMeV][MeBmt][Abu][dNMeA][X73]V[NMeL]))
2. C/C=C/C[C@@H](C)[C@@H](O)[C@H]1C(=O)N[C@@H](CC)C(=O)N(C)[C@H](C)C(=O)N(C)[C@@H]([C@H](C)CN2CCC(S(C)(=O)=O)CC2)C(=O)N[C@@H](C(C)C)C(=O)N(C)[C@@H](CC(C)C)C(=O)N[C@@H](C)C(=O)N[C@H](C)C(=O)N(C)[C@@H](CC(C)C)C(=O)N(C)[C@@H](CC(C)C)C(=O)N(C)[C@@H](C(C)C)C(=O)N1C [Compound 2.5.20] (cyclo(A[dA][NMeL][NMeL][NMeV][MeBmt][Abu][dNMeA][X37]V[NMeL]))
3. C/C=C/C[C@@H](C)[C@@H](O)[C@H]1C(=O)N[C@@H](CC)C(=O)N(C)[C@H](CCCN2CCOCC2)C(=O)N(C)[C@@H]([C@H](C)CS(C)(=O)=O)C(=O)N[C@@H](C(C)C)C(=O)N(C)[C@@H](CC(C)C)C(=O)N[C@@H](C)C(=O)N[C@H](C)C(=O)N(C)[C@@H](CC(C)C)C(=O)N(C)[C@@H](CC(C)C)C(=O)N(C)[C@@H](C(C)C)C(=O)N1C (stereo in doubt) [Compound 3.4.2]
4. C/C=C/C[C@@H](C)[C@@H](O)[C@H]1C(=O)N[C@@H](CC)C(=O)N(C)[C@H](C)C(=O)N(C)[C@@H]([C@H](C)CN2CCOCC2)C(=O)N[C@@H](C(C)C)C(=O)N(C)[C@@H](CC(C)C)C(=O)N[C@@H](C)C(=O)N[C@H](C)C(=O)N(C)[C@@H](CC(C)C)C(=O)N(C)[C@@H](CC(C)C)C(=O)N(C)[C@@H](C(C)C)C(=O)N1C [Compound 2.5.2] (cyclo(A[dA][NMeL][NMeL][NMeV][MeBmt][Abu][dNMeA][X3]V[NMeL]))
5. C/C=C/C[C@@H](C)[C@@H](O)[C@H]1C(=O)N[C@@H](CC)C(=O)N(C)[C@H](C)C(=O)N(C)[C@@H]([C@H](C)CN2CCN(CC)CC2)C(=O)N[C@@H](C(C)C)C(=O)N(C)[C@@H](CC(C)C)C(=O)N[C@@H](C)C(=O)N[C@H](C)C(=O)N(C)[C@@H](CC(C)C)C(=O)N(C)[C@@H](CC(C)C)C(=O)N(C)[C@@H](C(C)C)C(=O)N1C [Compound 2.5.13] (cyclo(A[dA][NMeL][NMeL][NMeV][MeBmt][Abu][dNMeA][X21]V[NMeL]))

6.8
29.2
13.8
6.3
5.3

Hello, the source for this data is patent US9566312B2, in case you need it.
